Test system: SF-295 CNS
Assay: NCI tumour cell line growth inhibition, 48 h
Property: TGI

* Cc1cc(S(=O)(=O)Nc2nnc(-c3ccccc3)c(-c3ccccc3)n2)c(SCC(N)=O)cc1Cl | 75 µM
* COC(=O)[C@H](C)NC(=O)NC(=O)NC(=O)CI | 33.1 µM
* COC1=C(OC)C(=O)C(Cc2c(C)nc3sc(C)cn23)=C(C)C1=O | 43.7 µM
* NCC1Nc2ccccc2[C@@H](O)C1O (some centres not stated) | > 100 µM
* COc1ccc(C2OC[C@H]3O[C@@H](OCc4ccccc4)[C@H](O)[C@@H](O)[C@@H]3O2)cc1 (some centres not stated) | > 100 µM
* NC(N)=N/N=C/c1c[nH]c2ccccc12 | > 100 µM
* CC(C)[Si](OC1=C(C(=O)N(C)c2cccc(Cl)c2)CCCC1)(C(C)C)C(C)C | 23.3 µM
* CCOC(=O)C1=C(C)N(NC(=O)Nc2ccccc2)C(=O)C1=P(c1ccccc1)(c1ccccc1)c1ccccc1 | > 100 µM
* CC(C)(C)OC(=O)NC(Cc1ccc(OCc2ccccc2)cn1)C(=O)N1CCCCC1 (configuration not stated) | > 100 µM
* COC(=O)[C@@H](C)CNS(=O)(=O)N(c1cc(C(F)(F)F)cc(C(F)(F)F)c1)C1CCN(Cc2ccc(F)cc2)CC1 | 24.5 µM
* COc1cc(/C=C2/C[C@H]3[C@@H]4CC=C5C[C@@H](O)CC[C@]5(C)[C@H]4CC[C@]3(C)NC2=O)cc(OC)c1OC | > 65.3 µM
* Cc1ccn2c(c1)nc1nc3ccccc3nc12 | > 100 µM
* CC1NC(=O)CC(c2ccccc2)N(N=O)C1c1ccccc1 (configuration not stated) | > 100 µM
* OC[C@H]1CCCC1O (some centres not stated) | > 100 µM
* O=Cc1ccc(OCc2cccc(COc3ccc(/C=N\Nc4ccc([N+](=O)[O-])cc4[N+](=O)[O-])cc3)n2)cc1 | > 100 µM
* CC(=O)CSCc1ccccn1 | > 100 µM
* CS/C(N)=N\NC(=O)CCC(=O)Nc1ccccc1C(F)(F)F | > 100 µM
* CCOC(=O)/C=C(/C(=O)OCC)n1ccc(=O)n(Cc2cn(COCCOC(C)=O)nn2)c1=O | > 100 µM
* c1cc(CNC23CC4CC(CC(C4)C2)C3)cc(C[N+](Cc2cccc(CNC34CC5CC(CC(C5)C3)C4)c2)(Cc2cccc(CNC34CC5CC(CC(C5)C3)C4)c2)Cc2cccc(CNC34CC5CC(CC(C5)C3)C4)c2)c1 (configuration not stated) | 43.6 µM
* Oc1ccccc1C(Sc1nc2ccccc2s1)Sc1nc2ccccc2s1 | > 100 µM
* COc1cc2c(cc1OC)C(CC(=O)NN=C(C)C)NCC2 (configuration not stated) | > 100 µM
* COC(=O)/C(=N\Nc1nnc(C)n1N)C(C#N)c1ccc(Cl)cc1 (configuration not stated) | > 100 µM
* Cn1c2c(c3ccccc31)CC1c3c(c4ccccc4n3C)CC21 (configuration not stated) | > 100 µM
* c1ccc(CNn2nnc3ccccc32)cc1 | > 100 µM
* CCOP(C)(=O)C(N)Cc1ccc(OC)c(OC)c1 (configuration not stated) | > 100 µM
* O=C(O)C1OC(n2cc(F)c(=O)[nH]c2=O)CC1O (configuration not stated) | > 100 µM
* CC(C)(C)c1ccc2c(c1)S(=O)(=O)Nc1ccccc1NS(=O)(=O)c1cc(C(C)(C)C)ccc1OCCOCCOCCO2 | > 100 µM
* C[C@]12CCC(=O)O[C@H]1CCCCO2 | > 100 µM
* CC1(C)SCc2nc3ncccc3n21 | > 100 µM
* O=C1/C(=C/c2ccc([N+](=O)[O-])cc2)C(=O)N(c2ccccc2)C1c1ccccc1 (configuration not stated) | > 10 µM
* O=P(Nc1ccc(Cl)cc1)(Oc1ccccc1)N(CCCl)CCCl (configuration not stated) | > 100 µM
* Nn1c(=O)n(Cc2ccccc2)n(-c2ccccc2)c1=O | > 100 µM
